Tested on: Pseudomonas stutzeri strain LH4:15 (ATCC PTA-8823)
assay: Aerobic growth response (turbidity) to varying concentrations of industrial preservatives;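 also: single plus means slight turbidity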
Assay type: cell-based
conditionSet: 0.5 g/L
propertyName: growth (turbidity)

Sample records with growth (turbidity):
>  <compound>
Cc1cc(O)ccc1Cl

>  <propertyName>
growth (turbidity)

>  <result>
−

$$$$
>  <compound>
CCCCCCCCCCCCN(C)C

>  <propertyName>
growth (turbidity)

>  <result>
−

$$$$
>  <compound>
Oc1ccccc1

>  <propertyName>
growth (turbidity)

>  <result>
++

$$$$
>  <compound>
COC(=O)c1ccc(O)cc1

>  <propertyName>
growth (turbidity)

>  <result>
+

$$$$

Now, please, on to the next compound.
Enquiry: Need growth (turbidity), item CN(C)C(=S)[S-].[Na+] [sodium dithiodimethyl carbamate]
Return: −

====

Tested on: Pseudomonas stutzeri strain LH4:15, ATCC PTA-8823
assay: Aerobic growth response (turbidity) to varying concentrations of potential microbial nutrients; also: key: − = no turbidity; + = slight turbidity; ++ = moderate to heavy turbidity
Assay type: cell-based
conditionSet: 10 g/L; 24 hours of incubation
propertyName: Growth response (turbidity)

Sample records with Growth response (turbidity):
>  <compound>
CC(O)C(=O)[O-].[Na+] (stereo not drawn) [Na lactate, sodium lactate]

>  <Growth response (turbidity)>
++

$$$$
>  <compound>
OCC(O)CO

>  <Growth response (turbidity)>
++

$$$$
>  <compound>
CCO

>  <Growth response (turbidity)>
++

$$$$
>  <compound>
NC(N)=O

>  <Growth response (turbidity)>
++

$$$$
>  <compound>
O=[N+]([O-])[O-].[Na+] [NaNO3, sodium nitrate]

>  <Growth response (turbidity)>
++

$$$$

Now, please, on to the next compound.
Enquiry: Need Growth response (turbidity), item "OCCO"
Return: ++

====

System: Pseudomonas stutzeri strain LH4:15, ATCC PTA-8823
assay: Aerobic growth response (turbidity) to varying concentrations of potential microbial nutrients; also: key: − = no turbidity; + = slight turbidity; ++ = moderate to heavy turbidity
Format: cell-based
conditionSet: 10 g/L; 120 hours of incubation
propertyName: Growth response (turbidity)

Sample records with Growth response (turbidity):
>  <compound>
CCO

>  <Growth response (turbidity)>
++

$$$$
>  <compound>
CC(O)C(=O)[O-].[Na+] (stereo not drawn) [Na lactate, sodium lactate]

>  <Growth response (turbidity)>
++

$$$$
>  <compound>
OCCO

>  <Growth response (turbidity)>
++

$$$$
>  <compound>
OCC(O)CO

>  <Growth response (turbidity)>
++

$$$$
>  <compound>
O=[N+]([O-])[O-].[Na+] [NaNO3, sodium nitrate]

>  <Growth response (turbidity)>
++

$$$$

Now, please, on to the next compound.
Enquiry: Need Growth response (turbidity), item "NC(N)=O"
Return: ++

====

System: Pseudomonas stutzeri strain LH4:15 (ATCC PTA-8823)
assay: Aerobic growth response (turbidity) to varying concentrations of industrial preservatives;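 also: single plus means slight turbidity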
Format: cell-based
conditionSet: 1 g/L
propertyName: growth (turbidity)

Sample records with growth (turbidity):
>  <compound>
OCCOc1ccccc1

>  <growth (turbidity)>
++

$$$$
>  <compound>
Oc1ccccc1

>  <growth (turbidity)>
++

$$$$
>  <compound>
COC(=O)c1ccc(O)cc1

>  <growth (turbidity)>
−

$$$$
>  <compound>
CN(C)C(=S)[S-].[Na+] [sodium dithiodimethyl carbamate]

>  <growth (turbidity)>
−

$$$$
>  <compound>
Cc1cc(O)ccc1Cl

>  <growth (turbidity)>
−

$$$$

Enquiry: Need growth (turbidity), item "CCCCCCCCCCCCN(C)C"
Return: −
